Origin of measurements: patent US20190351049A1

- system tested: MERS-CoV spike protein (EMC/2012), wt (MERS-CoV (isolate EMC/2012), UniProt K9N5Q8 18-1353)
- assay summary: cell-based or functional assay
value kind: IC50 against live virus (EMC2012) (nM)

H2aM15270N (antibody, V domains shown) VH: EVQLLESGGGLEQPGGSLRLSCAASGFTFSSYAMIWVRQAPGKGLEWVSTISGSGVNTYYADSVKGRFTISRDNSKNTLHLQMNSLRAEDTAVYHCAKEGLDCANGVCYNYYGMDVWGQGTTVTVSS VL: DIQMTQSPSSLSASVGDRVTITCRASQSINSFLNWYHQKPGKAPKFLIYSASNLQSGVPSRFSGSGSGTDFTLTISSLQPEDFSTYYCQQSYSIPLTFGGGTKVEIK : 0.711
H2aM15278N (antibody, V domains shown) VH: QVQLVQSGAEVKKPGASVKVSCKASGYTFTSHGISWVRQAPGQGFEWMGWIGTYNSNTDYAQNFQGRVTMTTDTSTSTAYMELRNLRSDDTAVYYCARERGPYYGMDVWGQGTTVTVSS VL: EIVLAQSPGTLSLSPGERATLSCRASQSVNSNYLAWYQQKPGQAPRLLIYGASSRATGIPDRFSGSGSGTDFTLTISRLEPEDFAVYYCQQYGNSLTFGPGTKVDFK : 0.644
H2bM15292N (antibody, V domains shown) VH: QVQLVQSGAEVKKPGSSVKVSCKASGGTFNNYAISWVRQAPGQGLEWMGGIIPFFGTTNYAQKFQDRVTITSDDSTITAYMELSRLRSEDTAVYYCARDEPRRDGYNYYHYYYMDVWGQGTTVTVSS VL: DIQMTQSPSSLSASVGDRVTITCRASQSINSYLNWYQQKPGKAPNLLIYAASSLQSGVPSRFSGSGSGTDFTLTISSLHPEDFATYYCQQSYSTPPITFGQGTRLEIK : 2.26
H1M15289N (antibody, V domains shown) VH: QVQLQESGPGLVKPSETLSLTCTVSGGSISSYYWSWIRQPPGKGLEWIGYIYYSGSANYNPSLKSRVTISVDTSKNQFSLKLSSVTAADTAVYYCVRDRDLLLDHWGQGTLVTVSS VL: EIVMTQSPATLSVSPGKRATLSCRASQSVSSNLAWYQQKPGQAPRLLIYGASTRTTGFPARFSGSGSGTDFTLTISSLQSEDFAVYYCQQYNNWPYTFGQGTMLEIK : 3.15
H2aM15271N (antibody, V domains shown) VH: EVQLVESGGALVQPGGSLRLSCAASGFIFGSYEMNWVRQAPGKGLEWLSYISSSGSTIYYADSVKGRFTISRDNAKNSLYLQMNSLRAEDTAVYYCARERGQLGRGGYYYYGMDVWGQGTTVTVSS VL: EIVLTRSPGTLSLSPGERATLSCRASQSVSSSYLAWYHQKPGQAPRLLMYGTSIRATGIPDRFSGSGSGTDFTLTISRLEPEDFAVYYCQQYGSSPPWTFGQGTKVEIK : 1.03
